- test: Log P
- Assay type: physicochemical
- condition_notes: Table 2
Rule for this label: Yes means logP is less than 4; No means logP is at least 4.

Record excerpt, results attached:
molecule	class_assignment
C[C@]12CC[C@@H]3c4ccc(O)cc4CC[C@H]3[C@@H]1CC[C@@H]2O [Example E2, estradiol, reference compound]	No
C[C@]12CCC3c4ccc(O)cc4CCC3C1C[C@@H](O)[C@@H]2OC(=O)C1CC1 (stereo partly drawn)	Yes
C[C@]12CCC3c4ccc(OC(=O)C5CC5)cc4CCC3C1C[C@@H](O)[C@@H]2O (stereo partly drawn)	Yes
CC(=O)Oc1ccc2c(c1)CCC1C2CC[C@@]2(C)C1C[C@@H](O)[C@@H]2O (stereo partly drawn)	Yes

Turning now to a further molecule:
Strictly below 4 in logP? C#C[C@]1(O)CC[C@H]2[C@@H]3CCc4cc(O)ccc4[C@H]3CC[C@@]21C [EE, ethinyl estradiol, reference compound] No
